B1: TPR t1 (parent)
chain: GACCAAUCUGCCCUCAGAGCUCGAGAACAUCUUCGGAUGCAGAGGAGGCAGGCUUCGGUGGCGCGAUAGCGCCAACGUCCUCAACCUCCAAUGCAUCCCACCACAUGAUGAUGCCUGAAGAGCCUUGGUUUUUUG

variants of: B1; experiment: polymerase ribozyme fitness, log enrichment relative to wild type (log ratio); higher = more active; in vitro selection for triplet polymerase activity
Each item that follows carries a reported polymerase ribozyme fitness (log ratio).

- VARIANT DESCRIPTOR: "C73G U109G"
  polymerase ribozyme fitness (log ratio): -6.77
- VARIANT DESCRIPTOR: "G10U U92G C94U U133A"
  polymerase ribozyme fitness (log ratio): -2.28
- VARIANT DESCRIPTOR: "C20G U116C"
  polymerase ribozyme fitness (log ratio): -3.78
- VARIANT DESCRIPTOR: "A91G C97A A118U"
  polymerase ribozyme fitness (log ratio): -5.26
- VARIANT DESCRIPTOR: "C79A G107A G117U"
  polymerase ribozyme fitness (log ratio): -6.98
- VARIANT DESCRIPTOR: "C64U C82G C89A U109A"
  polymerase ribozyme fitness (log ratio): -5.15
- VARIANT DESCRIPTOR: "C13A G44C C56U C124A"
  polymerase ribozyme fitness (log ratio): 0.969
- VARIANT DESCRIPTOR: "G10U G61A"
  polymerase ribozyme fitness (log ratio): 0.0248
- VARIANT DESCRIPTOR: "C8G C12G C73U A83G G113C"
  polymerase ribozyme fitness (log ratio): -2.3
- VARIANT DESCRIPTOR: "G61U U92C"
  polymerase ribozyme fitness (log ratio): -1.84
- VARIANT DESCRIPTOR: "C80U A84U"
  polymerase ribozyme fitness (log ratio): -1.02
- VARIANT DESCRIPTOR: "C13G C22A G45U G77A A111U"
  polymerase ribozyme fitness (log ratio): -6.13
- VARIANT DESCRIPTOR: "U32G C56A C97A U109A"
  polymerase ribozyme fitness (log ratio): -6.23
- VARIANT DESCRIPTOR: "U59C A91C G120C U133C G135U"
  polymerase ribozyme fitness (log ratio): -0.803
- VARIANT DESCRIPTOR: "A43U G44U A74U U87A"
  polymerase ribozyme fitness (log ratio): -5
- VARIANT DESCRIPTOR: "C11U G19U U54A G71A A121C G135U"
  polymerase ribozyme fitness (log ratio): -4.33
- VARIANT DESCRIPTOR: "C53U C86G C115U"
  polymerase ribozyme fitness (log ratio): -1.83
- VARIANT DESCRIPTOR: "G39U A50U G60U G61A C79A"
  polymerase ribozyme fitness (log ratio): -3.64
- VARIANT DESCRIPTOR: "G10U A18G A43C C72U C80U C85U G120U"
  polymerase ribozyme fitness (log ratio): -3.18
- VARIANT DESCRIPTOR: "C8G C12G A27U C64U"
  polymerase ribozyme fitness (log ratio): -1.4
- VARIANT DESCRIPTOR: "A37C G39C"
  polymerase ribozyme fitness (log ratio): -4.38
- VARIANT DESCRIPTOR: "C72A C124G"
  polymerase ribozyme fitness (log ratio): 2.23
- VARIANT DESCRIPTOR: "A2U C8A G19U A24U A26U U33C A108G A111C A121G"
  polymerase ribozyme fitness (log ratio): -7.47
- VARIANT DESCRIPTOR: "G58C G63C G128A"
  polymerase ribozyme fitness (log ratio): -1.77
- VARIANT DESCRIPTOR: "A29G G63U G120C"
  polymerase ribozyme fitness (log ratio): -1.96
- VARIANT DESCRIPTOR: "G45A U59G G60A A100U"
  polymerase ribozyme fitness (log ratio): -2.28
- VARIANT DESCRIPTOR: "A2G A27U C73G C79G C104U"
  polymerase ribozyme fitness (log ratio): -6.8
- VARIANT DESCRIPTOR: "A46U A103C C115G"
  polymerase ribozyme fitness (log ratio): -6.95
- VARIANT DESCRIPTOR: "G48A G77A C88U"
  polymerase ribozyme fitness (log ratio): -0.845
- VARIANT DESCRIPTOR: "A26G A50G C56G A74G C82G"
  polymerase ribozyme fitness (log ratio): -4.41
- VARIANT DESCRIPTOR: "G63C C115G"
  polymerase ribozyme fitness (log ratio): -2.43
- VARIANT DESCRIPTOR: "C12A C88G C89A U116C C124A G127A"
  polymerase ribozyme fitness (log ratio): -3.44
- VARIANT DESCRIPTOR: "G60A C70U C102A C115A"
  polymerase ribozyme fitness (log ratio): -3.29
- VARIANT DESCRIPTOR: "G17C C73U"
  polymerase ribozyme fitness (log ratio): -4.07
- VARIANT DESCRIPTOR: "A2C C62U"
  polymerase ribozyme fitness (log ratio): -2.03
- VARIANT DESCRIPTOR: "U9A C20G U96G C124U"
  polymerase ribozyme fitness (log ratio): -3.29
- VARIANT DESCRIPTOR: "A46U C62G C88A C124A U133G"
  polymerase ribozyme fitness (log ratio): -4.11
- VARIANT DESCRIPTOR: "G42C G48A C72G G120A"
  polymerase ribozyme fitness (log ratio): -1.67
- VARIANT DESCRIPTOR: "C8A G48U U59G A105C U112C G120A"
  polymerase ribozyme fitness (log ratio): -1.08
- VARIANT DESCRIPTOR: "C20G G48A G60U U96A A105U G110U A118U"
  polymerase ribozyme fitness (log ratio): -6.72
- VARIANT DESCRIPTOR: "A27G C49A"
  polymerase ribozyme fitness (log ratio): -2
- VARIANT DESCRIPTOR: "C40A A46U C79G C104U"
  polymerase ribozyme fitness (log ratio): -6.75
- VARIANT DESCRIPTOR: "G42A C64U U109A"
  polymerase ribozyme fitness (log ratio): -6.32
- VARIANT DESCRIPTOR: "C73U C115U"
  polymerase ribozyme fitness (log ratio): -0.667
- VARIANT DESCRIPTOR: "G36U U132A"
  polymerase ribozyme fitness (log ratio): -0.893
- VARIANT DESCRIPTOR: "C11A G42U C70U"
  polymerase ribozyme fitness (log ratio): -3.6
- VARIANT DESCRIPTOR: "G51U C62U C89U"
  polymerase ribozyme fitness (log ratio): -5
- VARIANT DESCRIPTOR: "U38C G45A G113C U125C"
  polymerase ribozyme fitness (log ratio): -3.38
- VARIANT DESCRIPTOR: "C20G U21A C62U U112A"
  polymerase ribozyme fitness (log ratio): -1.31
- VARIANT DESCRIPTOR: "C102A A118G"
  polymerase ribozyme fitness (log ratio): -2.42
- VARIANT DESCRIPTOR: "G19C G61A U81G A84G A91G A111G"
  polymerase ribozyme fitness (log ratio): -4.6
- VARIANT DESCRIPTOR: "U106C G117A"
  polymerase ribozyme fitness (log ratio): -3.23
- VARIANT DESCRIPTOR: "G51U G77C A91C C94A"
  polymerase ribozyme fitness (log ratio): -5.09
- VARIANT DESCRIPTOR: "G77A U96G"
  polymerase ribozyme fitness (log ratio): -1.12
- VARIANT DESCRIPTOR: "C8A C72G C101G"
  polymerase ribozyme fitness (log ratio): -2.08
- VARIANT DESCRIPTOR: "G45U C73U G110A G122A G128C"
  polymerase ribozyme fitness (log ratio): -6.61
- VARIANT DESCRIPTOR: "C12A A46C G60A C82G"
  polymerase ribozyme fitness (log ratio): -1.19
- VARIANT DESCRIPTOR: "C15A C70A"
  polymerase ribozyme fitness (log ratio): -2.47
- VARIANT DESCRIPTOR: "G42A G117A"
  polymerase ribozyme fitness (log ratio): -2.65
- VARIANT DESCRIPTOR: "C15G G60C U130C"
  polymerase ribozyme fitness (log ratio): -1.49
- VARIANT DESCRIPTOR: "U7C U14A A46U"
  polymerase ribozyme fitness (log ratio): -2.65
- VARIANT DESCRIPTOR: "A6G C97U"
  polymerase ribozyme fitness (log ratio): -0.751
- VARIANT DESCRIPTOR: "C12G G93A C94U"
  polymerase ribozyme fitness (log ratio): -1.83
- VARIANT DESCRIPTOR: "G10A C80U"
  polymerase ribozyme fitness (log ratio): -0.522
- VARIANT DESCRIPTOR: "A6U C34G G45C C49A C123U"
  polymerase ribozyme fitness (log ratio): -5.99
- VARIANT DESCRIPTOR: "A6C C13G G17A A18G"
  polymerase ribozyme fitness (log ratio): -4.66
- VARIANT DESCRIPTOR: "U38C U109C"
  polymerase ribozyme fitness (log ratio): -4.71
- VARIANT DESCRIPTOR: "C13G C15A A18C C79U G120U"
  polymerase ribozyme fitness (log ratio): -2.11
- VARIANT DESCRIPTOR: "G10A C53A"
  polymerase ribozyme fitness (log ratio): -0.00777
- VARIANT DESCRIPTOR: "C62U C86U A100U G110A U129G"
  polymerase ribozyme fitness (log ratio): -4.42
- VARIANT DESCRIPTOR: "U54C C73G A121U"
  polymerase ribozyme fitness (log ratio): 1.17
- VARIANT DESCRIPTOR: "A46C C53U C56A U112A"
  polymerase ribozyme fitness (log ratio): 0.259
- VARIANT DESCRIPTOR: "A2C G63U C115U"
  polymerase ribozyme fitness (log ratio): -4.82
- VARIANT DESCRIPTOR: "C72U C102A G120U U130G"
  polymerase ribozyme fitness (log ratio): -2.46
- VARIANT DESCRIPTOR: "A103U G113A U116A A121U"
  polymerase ribozyme fitness (log ratio): -5.45
- VARIANT DESCRIPTOR: "A2C C31G C79U G117U U126A"
  polymerase ribozyme fitness (log ratio): -4.9
- VARIANT DESCRIPTOR: "C49A G52C U96C"
  polymerase ribozyme fitness (log ratio): -0.622
- VARIANT DESCRIPTOR: "C8A U112A G128U"
  polymerase ribozyme fitness (log ratio): 0.095
- VARIANT DESCRIPTOR: "G48A G63C C82G G113U U132A"
  polymerase ribozyme fitness (log ratio): -3.71
- VARIANT DESCRIPTOR: "G51U G71C U109G G117U C124G"
  polymerase ribozyme fitness (log ratio): -7.73
- VARIANT DESCRIPTOR: "C79G C114A"
  polymerase ribozyme fitness (log ratio): -0.594
- VARIANT DESCRIPTOR: "U55C G69U A90G U112C A119U"
  polymerase ribozyme fitness (log ratio): 0.0646
- VARIANT DESCRIPTOR: "C13G C34G"
  polymerase ribozyme fitness (log ratio): -5.23
- VARIANT DESCRIPTOR: "U32C C53A C101A G120A"
  polymerase ribozyme fitness (log ratio): -0.18
- VARIANT DESCRIPTOR: "A103G A118G"
  polymerase ribozyme fitness (log ratio): -4.56
- VARIANT DESCRIPTOR: "G19A C62U C88A A121C"
  polymerase ribozyme fitness (log ratio): -1.46
- VARIANT DESCRIPTOR: "C15U A29U A37U C62G C124G G135C"
  polymerase ribozyme fitness (log ratio): -2.45
- VARIANT DESCRIPTOR: "G36C C64U C85U"
  polymerase ribozyme fitness (log ratio): -1.78
- VARIANT DESCRIPTOR: "A27C G69U C73A"
  polymerase ribozyme fitness (log ratio): -1.89
- VARIANT DESCRIPTOR: "U55G U130G"
  polymerase ribozyme fitness (log ratio): -0.58
- VARIANT DESCRIPTOR: "G42U G63U"
  polymerase ribozyme fitness (log ratio): -3.48
